- Test system: Enterococcus faecalis CL5244, VanB
- assayName: MIC susceptibility test
- Type: cell-based
- testParameters: Enterococcus faecalis CL5244, VanB; read-out: MIC CL5244
parameter: MIC (µg/mL)

>>> resultnumber("CN[C@@H](CC(C)C)C(=O)N[C@H]1C(=O)N[C@@H](CC(N)=O)C(=O)N[C@H]2C(=O)NC3C(=O)N[C@H](C(=O)N[C@@H](C(=O)O)c4cc(O)cc(O)c4-c4cc3ccc4O)[C@H](O)c3ccc(c(Cl)c3)Oc3cc2cc(c3OC2OC(CNCc3cc(Cl)ccc3O)C(O)C(O)C2OC2CC(C)(N)C(O)C(C)O2)Oc2ccc(cc2Cl)[C@H]1O (some centres unmarked)")
25
>>> resultnumber("CN[C@@H](CC(C)C)C(=O)N[C@H]1C(=O)N[C@@H](CC(N)=O)C(=O)N[C@H]2C(=O)NC3C(=O)N[C@H](C(=O)N[C@@H](C(=O)O)c4cc(O)cc(O)c4-c4cc3ccc4O)[C@H](O)c3ccc(c(Cl)c3)Oc3cc2cc(c3OC2OC(CSc3nnc(N)s3)C(O)C(O)C2OC2CC(C)(N)C(O)C(C)O2)Oc2ccc(cc2Cl)[C@H]1O (some centres unmarked)")
19

----------
- System: Enterococcus faecalis CL5244, VanB
- assayName: MIC susceptibility test
- Assay type: cell-based
- testParameters: Enterococcus faecalis CL5244, VanB; read-out: MIC CL5244
parameter: MIC (µg/mL)

>>> resultnumber("CN[C@@H](CC(C)C)C(=O)N[C@H]1C(=O)N[C@@H](CC(N)=O)C(=O)N[C@H]2C(=O)NC3C(=O)N[C@H](C(=O)N[C@@H](C(=O)O)c4cc(O)cc(O)c4-c4cc3ccc4O)[C@H](O)c3ccc(c(Cl)c3)Oc3cc2cc(c3OC2OC(CSc3nc(N)cc(N)n3)C(O)C(O)C2OC2CC(C)(N)C(O)C(C)O2)Oc2ccc(cc2Cl)[C@H]1O (stereo partly drawn)")
6.3
>>> resultnumber("CN[C@@H](CC(C)C)C(=O)N[C@H]1C(=O)N[C@@H](CC(N)=O)C(=O)N[C@H]2C(=O)NC3C(=O)N[C@H](C(=O)N[C@@H](C(=O)O)c4cc(O)cc(O)c4-c4cc3ccc4O)[C@H](O)c3ccc(c(Cl)c3)Oc3cc2cc(c3OC2OC(CSc3nc(-c4ccccc4)c(-c4ccccc4)o3)C(O)C(O)C2OC2CC(C)(NCc3ccc(-c4ccc(Cl)cc4)cc3)C(O)C(C)O2)Oc2ccc(cc2Cl)[C@H]1O (stereo partly drawn)")
10
>>> resultnumber("C=C1N[C@@H]2C(=O)N[C@@H](C(=O)O)c3cc(O)cc(O)c3-c3cc(ccc3O)C1NC(=O)[C@@H]1NC(=O)[C@H](CC(N)=O)NC(=O)[C@H](NC(=O)[C@H](CC(C)C)NC)[C@H](O)c3ccc(c(Cl)c3)Oc3cc1cc(c3OC1OC(CSc3nc(-c4ccccc4)c(-c4ccccc4)o3)C(O)C(O)C1OC1CC(C)(N)C(O)C(C)O1)Oc1ccc(cc1Cl)[C@H]2O (stereo partly drawn)")
0.6

----------
Below is a list of entries, each paired with its recorded MIC value.
- Test system: Enterococcus faecalis CL5244, VanB
- assayName: MIC susceptibility test
- Type: cell-based
- testParameters: Enterococcus faecalis CL5244, VanB; read-out: MIC CL5244
parameter: MIC (µg/mL)

>>> resultnumber("CN[C@@H](CC(C)C)C(=O)N[C@H]1C(=O)N[C@@H](CC(N)=O)C(=O)N[C@H]2C(=O)NC3C(=O)N[C@H](C(=O)N[C@@H](C(=O)O)c4cc(O)cc(O)c4-c4cc3ccc4O)[C@H](O)c3ccc(c(Cl)c3)Oc3cc2cc(c3OC2OC(CSc3nnc(C)c(O)n3)C(O)C(O)C2OC2CC(C)(NCc3ccc(-c4ccc(Cl)cc4)cc3)C(O)C(C)O2)Oc2ccc(cc2Cl)[C@H]1O (stereo partly drawn) [LXXXVI]")
0.4
>>> resultnumber("CN[C@@H](CC(C)C)C(=O)N[C@H]1C(=O)N[C@@H](CC(N)=O)C(=O)N[C@H]2C(=O)NC3C(=O)N[C@H](C(=O)N[C@@H](C(=O)O)c4cc(O)cc(O)c4-c4cc3ccc4O)[C@H](O)c3ccc(c(Cl)c3)Oc3cc2cc(c3OC2OC(CSc3nc(C)cc(O)n3)C(O)C(O)C2OC2CC(C)(NCc3ccc(-c4ccc(Cl)cc4)cc3)C(O)C(C)O2)Oc2ccc(cc2Cl)[C@H]1O (stereo partly drawn) [LXXXV]")
0.4
>>> resultnumber("CCCCCCCCCCNC1(C)CC(OC2C(Oc3c4cc5cc3Oc3ccc(cc3Cl)[C@@H](O)[C@@H](NC(=O)[C@H](CC(C)C)NC)C(=O)N[C@@H](CC(N)=O)C(=O)N[C@H]5C(=O)NC3C(=O)N[C@H](C(=O)N[C@@H](C(=O)O)c5cc(O)cc(O)c5-c5cc3ccc5O)[C@H](O)c3ccc(c(Cl)c3)O4)OC(CSc3nc(-c4ccccc4)c(-c4ccccc4)o3)C(O)C2O)OC(C)C1O (stereo partly drawn) [LXXXII]")
13

----------
- System: Enterococcus faecium CL5137, VanA
- assayName: MIC susceptibility test
- Format: cell-based
- testParameters: Enterococcus faecium CL5137, VanA; read-out: MIC CL5137
Below is a list of entries, each paired with its recorded MIC value.
parameter: MIC

>>> result("CN[C@@H](CC(C)C)C(=O)N[C@H]1C(=O)N[C@@H](CC(N)=O)C(=O)N[C@H]2C(=O)NC3C(=O)N[C@H](C(=O)N[C@@H](C(=O)O)c4cc(O)cc(O)c4-c4cc3ccc4O)[C@H](O)c3ccc(c(Cl)c3)Oc3cc2cc(c3OC2OC(CN=[N+]=[N-])C(O)C(O)C2OC2CC(C)(N)C(O)C(C)O2)Oc2ccc(cc2Cl)[C@H]1O (stereo partly drawn) [XLVI, Glucose-C6-azide Vancomycin]")
"> 50 µg/mL"
>>> result("CN[C@@H](CC(C)C)C(=O)N[C@H]1C(=O)N[C@@H](CC(N)=O)C(=O)N[C@H]2C(=O)NC3C(=O)N[C@H](C(=O)N[C@@H](C(=O)O)c4cc(O)cc(O)c4-c4cc3ccc4O)[C@H](O)c3ccc(c(Cl)c3)Oc3cc2cc(c3OC2OC(CN)C(O)C(O)C2OC2CC(C)(NCc3ccc(-c4ccc(Cl)cc4)cc3)C(O)C(C)O2)Oc2ccc(cc2Cl)[C@H]1O (stereo partly drawn)")
"2 µg/mL"
>>> result("CN[C@@H](CC(C)C)C(=O)N[C@H]1C(=O)N[C@@H](CC(N)=O)C(=O)N[C@H]2C(=O)NC3C(=O)N[C@H](C(=O)N[C@@H](C(=O)O)c4cc(O)cc(O)c4-c4cc3ccc4O)[C@H](O)c3ccc(c(Cl)c3)Oc3cc2cc(c3OC2OC(CSc3nnc(C)c(O)n3)C(O)C(O)C2OC2CC(C)(N)C(O)C(C)O2)Oc2ccc(cc2Cl)[C@H]1O (stereo partly drawn)")
"> 500 µg/mL"

----------
- Test system: Enterococcus faecalis CL5244, VanB
- assayName: MIC susceptibility test
- Format: cell-based
- testParameters: Enterococcus faecalis CL5244, VanB; read-out: MIC CL5244
parameter: MIC (µg/mL)

>>> resultnumber("CN[C@@H](CC(C)C)C(=O)N[C@H]1C(=O)N[C@@H](CC(N)=O)C(=O)N[C@H]2C(=O)NC3C(=O)N[C@H](C(=O)N[C@@H](C(=O)O)c4cc(O)cc(O)c4-c4cc3ccc4O)[C@H](O)c3ccc(c(Cl)c3)Oc3cc2cc(c3OC2OC(CSc3nc(C)cc(O)n3)C(O)C(O)C2OC2CC(C)(N)C(O)C(C)O2)Oc2ccc(cc2Cl)[C@H]1O (some centres unmarked) [LXXVIII]")
6.3

----------
- System: Enterococcus faecalis (ATCC 29212)
- assayName: MIC susceptibility test, microdilution with MTT readout
- Assay type: cell-based
- testParameters: Enterococcus faecalis ATCC29212; read-out: MIC EF
Label key: t means MIC under 2 µg/mL; f means MIC of 2 µg/mL or more.

>>> grouplabel("CCCCCCCCCCNC1(C)CC(OC2C(Oc3c4cc5cc3Oc3ccc(cc3Cl)[C@@H](O)[C@@H](NC(=O)[C@H](CC(C)C)NC)C(=O)N[C@@H](CC(N)=O)C(=O)N[C@H]5C(=O)NC3C(=O)N[C@H](C(=O)N[C@@H](C(=O)O)c5cc(O)cc(O)c5-c5cc3ccc5O)[C@H](O)c3ccc(c(Cl)c3)O4)OC(CSc3nnc(C)c(O)n3)C(O)C2O)OC(C)C1O (stereo partly drawn)")
"t"
>>> grouplabel("CN[C@@H](CC(C)C)C(=O)N[C@H]1C(=O)N[C@@H](CC(N)=O)C(=O)N[C@H]2C(=O)NC3C(=O)N[C@H](C(=O)N[C@@H](C(=O)O)c4cc(O)cc(O)c4-c4cc3ccc4O)[C@H](O)c3ccc(c(Cl)c3)Oc3cc2cc(c3OC2OC(CSc3nc(-c4ccccc4)c(-c4ccccc4)o3)C(O)C(O)C2OC2CC(C)(NCc3ccc(-c4ccc(Cl)cc4)cc3)C(O)C(C)O2)Oc2ccc(cc2Cl)[C@H]1O (stereo partly drawn)")
"f"
>>> grouplabel("CN[C@@H](CC(C)C)C(=O)N[C@H]1C(=O)N[C@@H](CC(N)=O)C(=O)N[C@H]2C(=O)NC3C(=O)N[C@H](C(=O)N[C@@H](C(=O)O)c4cc(O)cc(O)c4-c4cc3ccc4O)[C@H](O)c3ccc(c(Cl)c3)Oc3cc2cc(c3OC2OC(CSc3nnnn3C)C(O)C(O)C2OC2CC(C)(N)C(O)C(C)O2)Oc2ccc(cc2Cl)[C@H]1O (stereo partly drawn)")
"f"
>>> grouplabel("CN[C@@H](CC(C)C)C(=O)N[C@H]1C(=O)N[C@@H](CC(N)=O)C(=O)N[C@H]2C(=O)NC3C(=O)N[C@H](C(=O)N[C@@H](C(=O)O)c4cc(O)cc(O)c4-c4cc3ccc4O)[C@H](O)c3ccc(c(Cl)c3)Oc3cc2cc(c3OC2OC(CSc3nnc(N)s3)C(O)C(O)C2OC2CC(C)(NCc3ccc(-c4ccc(Cl)cc4)cc3)C(O)C(C)O2)Oc2ccc(cc2Cl)[C@H]1O (stereo partly drawn)")
"t"
>>> grouplabel("CN[C@@H](CC(C)C)C(=O)N[C@H]1C(=O)N[C@@H](CC(N)=O)C(=O)N[C@H]2C(=O)NC3C(=O)N[C@H](C(=O)N[C@@H](C(=O)O)c4cc(O)cc(O)c4-c4cc3ccc4O)[C@H](O)c3ccc(c(Cl)c3)Oc3cc2cc(c3OC2OC(CSc3nnc(C)c(O)n3)C(O)C(O)C2OC2CC(C)(N)C(O)C(C)O2)Oc2ccc(cc2Cl)[C@H]1O (stereo partly drawn)")
"t"
>>> grouplabel("CN[C@@H](CC(C)C)C(=O)N[C@H]1C(=O)N[C@@H](CC(N)=O)C(=O)N[C@H]2C(=O)NC3C(=O)N[C@H](C(=O)N[C@@H](C(=O)O)c4cc(O)cc(O)c4-c4cc3ccc4O)[C@H](O)c3ccc(c(Cl)c3)Oc3cc2cc(c3OC2OC(CSc3nc(N)cc(O)n3)C(O)C(O)C2OC2CC(C)(N)C(O)C(C)O2)Oc2ccc(cc2Cl)[C@H]1O (stereo partly drawn)")
"f"
